Test system: Hepatotoxicity
*1 amine or outer side, *2 acyl side, *3 side chain or, on linkers, in order; H or OH if unused. Where a SMILES comes first, the peptide text is derived from it. Bridges are numbered along the chain shown (N, C = ends). [ ]: non-standard residue; d: D form. The star is where a group is joined. hTyr(3S-OH,4S-OH,3'-OSO3H) = N[C@H](C(=O)O)[C@H](O)[C@@H](O)c1ccc(O)c(OS(=O)(=O)O)c1; pTerphenylCO(4''-OnC5H11) = CCCCCOc1ccc(-c2ccc(-c3ccc(C(=O)*)cc3)cc2)cc1; Orn(4R-OH,5R-OH) = O=C([C@H](C[C@@H](O)[C@@H](O)N[*:3])N[*:1])[*:2]; hTyr(3S-OH,4S-OH) = N[C@H](C(=O)O)[C@H](O)[C@@H](O)c1ccc(O)cc1; Pro(3S-OH,4S-Me) = C[C@H]1CN[C@H](C(=O)O)[C@H]1O; X1 = CCCCCOc1ccc(-c2cc(-c3ccc(C(=O)*)cc3)no2)cc1; Gln(3R-OH) = NC(=O)C[C@@H](O)[C@H](N)C(=O)O; Hyp = O=C(O)[C@@H]1C[C@@H](O)CN1
measured-parameter: HepSE_jaundice
Write the value as a bare number.

Consider the molecule CCCCCOc1ccc(-c2ccc(-c3ccc(C(=O)N[C@H]4C[C@@H](O)[C@@H](O)NC(=O)[C@@H]5[C@@H](O)[C@@H](C)CN5C(=O)[C@H]([C@@H](C)O)NC(=O)[C@H]([C@H](O)[C@@H](O)c5ccc(O)cc5)NC(=O)[C@@H]5C[C@@H](O)CN5C(=O)[C@H]([C@@H](C)O)NC4=O)cc3)cc2)cc1 [ANIDULAFUNGIN] ({pTerphenylCO(4''-OnC5H11)}-[Orn(4R-OH,5R-OH)]T[Hyp][hTyr(3S-OH,4S-OH)]T[Pro(3S-OH,4S-Me)]; lactam 1-C) . State its measured HepSE_jaundice. 0

Complete the entry with HepSE_jaundice for CCCCCOc1ccc(-c2cc(-c3ccc(C(=O)N[C@H]4C[C@@H](O)[C@@H](O)NC(=O)[C@@H]5[C@@H](O)[C@@H](C)CN5C(=O)[C@H]([C@H](O)CC(N)=O)NC(=O)[C@H]([C@H](O)[C@@H](O)c5ccc(O)c(OS(=O)(=O)O)c5)NC(=O)[C@@H]5C[C@@H](O)CN5C(=O)[C@H]([C@@H](C)O)NC4=O)cc3)no2)cc1 [MICAFUNGIN] (X1-[Orn(4R-OH,5R-OH)]T[Hyp][hTyr(3S-OH,4S-OH,3'-OSO3H)][Gln(3R-OH)][Pro(3S-OH,4S-Me)]; lactam 1-C) 1

----------
Test system: Hepatotoxicity
experimental-context: Liver
Below: a set of entries, each annotated with reported HepSE_liver function tests abnormal.
Returns: the value as a bare number; no unit string appended.

Worked cases, answers included:
[[record]]
compound = "NCCCNCCSP(=O)(O)O"
quantitative_result = 0

[[record]]
compound = "Brc1c(NC2=NCCN2)ccc2nccnc12"
quantitative_result = 0

[[record]]
compound = "CC1=C(/C=C/C(C)=C/C=C/C(C)=C/CO)C(C)(C)CCC1"
quantitative_result = 0

[[record]]
compound = "CN(C)CCC=C1c2ccccc2C=Cc2ccccc21"
quantitative_result = 0


# evaluate next
Fill in reported HepSE_liver function tests abnormal for this entry: CCN(Cc1ccncc1)C(=O)C(CO)c1ccccc1 (stereo unspecified) [TROPICAMIDE] 0

----------
System: Hepatotoxicity
This section presents molecules with their documented HepSE_liver disease values.
Just the number.

[[record]]
molecule = "CC(=O)O.CCNC(=O)[C@@H]1CCCN1C(=O)[C@H](CCCNC(=N)N)NC(=O)[C@H](CC(C)C)NC(=O)[C@@H](CC(C)C)NC(=O)[C@H](Cc1ccc(O)cc1)NC(=O)[C@H](CO)NC(=O)[C@H](Cc1c[nH]c2ccccc12)NC(=O)[C@H](Cc1c[nH]cn1)NC(=O)[C@@H]1CCC(=O)N1 [LEUPROLIDE ACETATE]"
assay_target = "Hepatotoxicity"
measured_parameter = "HepSE_liver disease"
quantitative_result = 0


Lab note: next molecule to report on.
# return recorded HepSE_liver disease for input COC(=O)[C@H]1[C@H]2C[C@@H]3c4[nH]c5cc(OC)ccc5c4CCN3C[C@H]2C[C@@H](OC(=O)c2cc(OC)c(OC)c(OC)c2)[C@@H]1OC 0

----------
The following compounds have recorded HepSE_hepatitis on Hepatotoxicity.
Respond using a number only.

In the examples that follow, each entry is paired with its recorded HepSE_hepatitis.
[[record]]
compound = "Nc1nc(Cl)nc2c1ncn2[C@@H]1O[C@H](CO)[C@@H](O)[C@@H]1F [CLOFARABINE]"
quantitative_result = 0

[[record]]
compound = "CC[C@H](C)C[C@H](C)CCCCCCCCC(=O)N[C@H]1C[C@@H](O)[C@@H](NCCN)NC(=O)[C@@H]2[C@@H](O)CCN2C(=O)[C@H]([C@H](O)CCN)NC(=O)[C@H]([C@H](O)[C@@H](O)c2ccc(O)cc2)NC(=O)[C@@H]2C[C@@H](O)CN2C(=O)[C@H]([C@@H](C)O)NC1=O [CASPOFUNGIN]"
quantitative_result = 0


Given CCCCC(=O)N(Cc1ccc(-c2ccccc2-c2nnn[nH]2)cc1)[C@H](C(=O)O)C(C)C , respond with its HepSE_hepatitis. 1

Complete the entry with HepSE_hepatitis for O=C(O)CCc1nc(-c2ccccc2)c(-c2ccccc2)o1 [OXAPROZIN] 1

Consider the compound CO[C@H]1/C=C/O[C@@]2(C)Oc3c(C)c(O)c4c(O)c(c(/C=N/N5CCN(C)CC5)c(O)c4c3C2=O)NC(=O)/C(C)=C\C=C\[C@H](C)[C@H](O)[C@@H](C)[C@@H](O)[C@@H](C)[C@H](OC(C)=O)[C@@H]1C [RIFAMPIN] and give its recorded HepSE_hepatitis. 1

Tell me measured HepSE_hepatitis for CC(CCc1ccc(O)cc1)NCCc1ccc(O)c(O)c1 (stereo unspecified) [DOBUTAMINE] please. 0

Given the compound CCN(CC)CCNC(=O)c1cc(Cl)c(N)cc1OC [METOCLOPRAMIDE] , write its reported HepSE_hepatitis. 0

Quickly give me recorded HepSE_hepatitis for CN(C)CCC(c1ccc(Cl)cc1)c1ccccn1 (stereo unspecified) [CHLORPHENIRAMINE] 0

----------
Test system: Hepatotoxicity
measured-parameter: HepSE_cirrhosis
Keep the answer to the number alone.

Use the examples below as a reference point.
[[record]]
substance = "PORFIMER SODIUM"
quantitative_result = 0

[[record]]
substance = "GADOFOSVESET TRISODIUM"
quantitative_result = 0

[[record]]
substance = "UROFOLLITROPIN"
quantitative_result = 0

[[record]]
substance = "AURANOFIN"
quantitative_result = 0


Provide HepSE_cirrhosis, recorded with Hepatotoxicity, of IVERMECTIN 0

Please look at GOLD SODIUM THIOMALATE and tell me its recorded HepSE_cirrhosis on Hepatotoxicity. 0

Provide HepSE_cirrhosis, tested on Hepatotoxicity, for VITAMIN B12 . 0

# assay system Hepatotoxicity: give HepSE_cirrhosis of NYSTATIN 0

State HepSE_cirrhosis on Hepatotoxicity. Entry: CARBOPLATIN 0

----------
Test system: Hepatotoxicity
measured-parameter: HepSE_Combined Scores

[[record]]
molecule = "CC(=O)NCCCS(=O)(=O)O [ACAMPROSATE]"
measured_parameter = "HepSE_Combined Scores"
result = 5


Answer briefly: HepSE_Combined Scores recorded on Hepatotoxicity for CCc1cccc2c3c([nH]c12)C(CC)(CC(=O)O)OCC3 (stereo not drawn) 4

Under Hepatotoxicity: report HepSE_Combined Scores of CC[C@H](C)C[C@H](C)CCCCCCCCC(=O)N[C@H]1C[C@@H](O)[C@@H](NCCN)NC(=O)[C@@H]2[C@@H](O)CCN2C(=O)[C@H]([C@H](O)CCN)NC(=O)[C@H]([C@H](O)[C@@H](O)c2ccc(O)cc2)NC(=O)[C@@H]2C[C@@H](O)CN2C(=O)[C@H]([C@@H](C)O)NC1=O . 5

----------
Consider compounds characterized by their HepSE_hepatic failure with Hepatotoxicity.

Solved cases (4 shown):
[[record]]
compound = "[Cl-].[Na+] [SODIUM CHLORIDE]"
measured_parameter = "HepSE_hepatic failure"
result = 0

[[record]]
compound = "CNCC[C@@H](Oc1ccccc1C)c1ccccc1 [ATOMOXETINE]"
measured_parameter = "HepSE_hepatic failure"
result = 0

[[record]]
compound = "C[C@]12CC[C@H]3[C@@H](CCC4=CC(=O)CC[C@@H]43)[C@@H]1CC[C@@H]2O [NANDROLONE]"
measured_parameter = "HepSE_hepatic failure"
result = 0

[[record]]
compound = "COc1ccnc(C[S+]([O-])c2nc3ccc(OC(F)F)cc3[nH]2)c1OC (configuration not stated) [PANTOPRAZOLE]"
measured_parameter = "HepSE_hepatic failure"
result = 1


Please report the measured HepSE_hepatic failure for CC#C[C@]1(O)CC[C@H]2[C@@H]3CCC4=CC(=O)CCC4=C3[C@@H](c3ccc(N(C)C)cc3)C[C@@]21C [MIFEPRISTONE] 0

Provide measured HepSE_hepatic failure value, entry: Cc1nccn1CC1CCc2c(c3ccccc3n2C)C1=O (configuration not stated) [ONDANSETRON] 1

Look up and state reported HepSE_hepatic failure for CCNC(=O)[C@@H]1CCCN1C(=O)[C@H](CCCNC(=N)N)NC(=O)[C@H](CC(C)C)NC(=O)[C@@H](COC(C)(C)C)NC(=O)[C@H](Cc1ccc(O)cc1)NC(=O)[C@H](CO)NC(=O)[C@H](Cc1c[nH]c2ccccc12)NC(=O)[C@H](Cc1cnc[nH]1)NC(=O)[C@@H]1CCC(=O)N1 [BUSERELIN] 0
